Quick list: koff per entry.
- assayTarget: T1, human FAPα-His tag (Sino biological) (human, UniProt Q12884 26-760)
- T1 construct: Bought protein; also called human FAPα-His protein; not shown: His tag
- T1 sequence (looked up): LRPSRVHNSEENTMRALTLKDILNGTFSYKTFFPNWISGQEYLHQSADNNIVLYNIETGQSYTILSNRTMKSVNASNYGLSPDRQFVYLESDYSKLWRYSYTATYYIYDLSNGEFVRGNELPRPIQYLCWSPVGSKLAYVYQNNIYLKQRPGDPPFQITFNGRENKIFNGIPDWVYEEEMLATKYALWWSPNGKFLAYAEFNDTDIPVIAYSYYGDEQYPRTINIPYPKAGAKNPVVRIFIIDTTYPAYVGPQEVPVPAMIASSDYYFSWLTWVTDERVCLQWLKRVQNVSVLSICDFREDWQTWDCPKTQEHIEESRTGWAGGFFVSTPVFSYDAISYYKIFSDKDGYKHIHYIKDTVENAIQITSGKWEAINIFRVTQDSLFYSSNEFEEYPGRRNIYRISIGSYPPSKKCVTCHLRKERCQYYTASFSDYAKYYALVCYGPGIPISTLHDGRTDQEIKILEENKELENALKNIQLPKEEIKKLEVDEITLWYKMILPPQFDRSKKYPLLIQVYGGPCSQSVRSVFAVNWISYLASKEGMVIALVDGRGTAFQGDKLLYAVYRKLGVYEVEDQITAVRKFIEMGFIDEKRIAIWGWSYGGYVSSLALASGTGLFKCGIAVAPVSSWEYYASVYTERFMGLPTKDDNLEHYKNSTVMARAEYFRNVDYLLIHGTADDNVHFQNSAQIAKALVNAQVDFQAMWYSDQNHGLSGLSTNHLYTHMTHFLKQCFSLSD
- experimentDescription: SPR (Biacore T200), mAb captured on Protein A chip, human FAPα-His as analyte
- Description: The binding of the tested antibodies to recombinant FAPα protein (human FAPα-his tag) was tested with Biacore using a capture method. The mAbs were captured using Protein A chip. A serial dilution of human FAPα-his tag protein was injected over captured antibody for 3 mins at a flow rate of 30 μl/min. The antigen was allowed to dissociate for 800s. All the experiments were carried out on a Biacore T200. Data analysis was carried out using the Biacore T200 evaluation software.
Please state the figure in s⁻¹; there is no need to write the unit.

# koff lookup, item J40 (antibody, V domains shown, Tested as a mAb; also called FAP-J40; FAP-J40-Bio (biotin-conjugated form)) VH: EVQLLESGGGLVQPGGSLRLSCAASGFTFSSYAMSWVRQAPGKGLEWVSAISGSGGSTYYADSVKGRFTISRDNSKNTLYLQMNSLRTDDTAVYYCARDLTTSTGWESWGQGTLVTVSA VL: NIQMTQSPSSVSASVGDRVTITCRASQGISSWLAWYQQKPGKAPKLLIYAASSLQSGVPSRFSGSGSGTDFTLTISSLQPEDFATYYCQQANSFPPTFGQGTKLEIK 7.31e-05

What value of koff has been reported for the following binder? I38 (antibody, V domains shown, Tested as a mAb; also called FAP-I38) VH: EVQLVQSGAEVKEPGVSVKVSCKASGYTFASYGLSWVRLAPGQGLQWMGWISPYTPNPIYAPNFRDKVILTTDRSTNTAYLEVRSLRSDDTGLYYCARNHWVGRPTRAFDLWGQGTMVTVSA VL: EIVLTQSPGTLSLSPGERATLSCRASQTVSITHLAWYQQKPGQAPRLLTYGASARATGIPDRFSVSGSGTDFTLTITRLEPEDFAVYYCQHYGSSITFGGGTKVEIK 0.000116

Look at this binder and give its reported koff. I37 (antibody, V domains shown, Tested as a mAb; also called FAP-I37) VH: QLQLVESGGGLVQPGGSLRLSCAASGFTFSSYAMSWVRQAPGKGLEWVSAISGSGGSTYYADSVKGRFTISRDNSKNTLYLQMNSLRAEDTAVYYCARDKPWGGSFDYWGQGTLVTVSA VL: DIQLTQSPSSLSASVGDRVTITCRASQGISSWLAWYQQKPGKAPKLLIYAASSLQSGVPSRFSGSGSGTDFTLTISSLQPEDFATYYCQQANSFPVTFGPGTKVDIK 0.000154
